- Test system: CP203
- procedure summary: qHTS profiling for inhibitors of Plasmodium falciparum proliferation (AID 504749); note: nearly all actives have a fitted effect of over 60% in size
- condition info: P. falciparum in erythrocytes, SYBR Green DNA, 72 h; series mostly up to 28.7 µM
Results filed as inconclusive are left out. The source made the active and inactive calls. Calls come from the whole dose curve; as a rule, active = well fitted inhibition curve with a large enough effect; inconclusive = small, poorly fitted or top-dose-only effect; inactive = flat fitted curve, though single readings scatter.
Output constraint: value belongs to active, inactive

Inquiry: Identify the outcome logged in this assay for the compound shown: O=S1(=O)c2cccc3cccc(c23)N1CCCN1CCN(c2ccc(F)cc2)CC1
Reply text: inactive

Inquiry: Identify the outcome logged in this assay for the compound shown: Oc1ccc(Cl)c2cccnc12
Reply text: inactive

Inquiry: Identify the outcome logged in this assay for the compound shown: COc1cccc(CCc2ccccc2OCC(CN(C)C)OC(=O)CCC(=O)O)c1 (stereo unspecified)
Reply text: active

Inquiry: Identify the outcome logged in this assay for the compound shown: CCN1CCC[C@H]1CNC(=O)c1c(OC)ccc(Br)c1OC
Reply text: inactive

Inquiry: Identify the outcome logged in this assay for the compound shown: Nc1ccc(/C=C/c2ccc(N)cc2S(=O)(=O)O)c(S(=O)(=O)O)c1
Reply text: inactive

Inquiry: Identify the outcome logged in this assay for the compound shown: C[N+]1(CCCCC[N+]2(C)CCCC2)CCCC1
Reply text: inactive

Inquiry: Identify the outcome logged in this assay for the compound shown: CCC(=O)c1c(O)cc(O)cc1O
Reply text: inactive

Attribution: PubChem BioAssay (NCATS)
